tgt: Mu-type opioid receptor (Rattus norvegicus)
Sequence (P33535 whole entry): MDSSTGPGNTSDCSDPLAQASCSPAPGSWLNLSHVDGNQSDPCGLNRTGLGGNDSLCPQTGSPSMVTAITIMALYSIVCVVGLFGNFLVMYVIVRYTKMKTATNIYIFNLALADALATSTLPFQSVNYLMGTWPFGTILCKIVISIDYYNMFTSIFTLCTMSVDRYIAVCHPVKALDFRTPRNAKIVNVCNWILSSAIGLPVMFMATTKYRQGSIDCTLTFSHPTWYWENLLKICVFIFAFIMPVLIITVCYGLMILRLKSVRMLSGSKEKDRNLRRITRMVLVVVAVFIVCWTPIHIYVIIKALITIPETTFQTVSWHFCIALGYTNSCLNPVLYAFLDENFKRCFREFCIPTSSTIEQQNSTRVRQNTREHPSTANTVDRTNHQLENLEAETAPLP
test protocol: Binding affinity against Opioid receptor mu 1 in P2 membrane preparation of rat brain by [3H]DAGO displacement.
Type: cell membranes
pKi: −log10 of the molar value. Square brackets hold non-standard residues; d marks the D form. Peptide text beside a SMILES is read from it.
Classification field: enter T for pKi values not below 6, F for values below it.

compound: CSCC[C@H](NC(=O)[C@H](CC(C)C)NC(=O)[C@H](Cc1c[nH]cn1)NC(=O)[C@H](Cc1ccccc1)NC(=O)[C@@H](CCSC)NC(=O)[C@@H](N)Cc1ccc(O)cc1)C(=O)N[C@@H](CC(N)=O)C(N)=O
cat: T
//
compound: CC(C)[C@H](NC(=O)[C@H](CC(=O)O)NC(=O)[C@@H](NC(=O)[C@H](Cc1ccccc1)NC(=O)[C@H](C)NC(=O)[C@@H](N)Cc1ccc(O)cc1)C(C)C)C(=O)NCC(N)=O (H-YAFVDVG-NH2)
cat: T
//
compound: CSCC[C@H](NC(=O)[C@H](CC(C)C)NC(=O)[C@H](Cc1c[nH]cn1)NC(=O)[C@H](Cc1ccccc1)NC(=O)[C@@H](CCSC)NC(=O)[C@@H](N)Cc1ccc(O)cc1)C(=O)N[C@@H](CC(=O)O)C(=O)O (H-Y[dM]FHLMD-OH)
cat: F
//
compound: CSCC[C@H](NC(=O)[C@H](CC(=O)O)NC(=O)[C@H](CC(=O)O)NC(=O)[C@H](Cc1ccccc1)NC(=O)[C@@H](CCSC)NC(=O)[C@@H](N)Cc1ccc(O)cc1)C(=O)N[C@@H](Cc1c[nH]cn1)C(N)=O
cat: F
//
compound: CC(C)[C@H](NC(=O)[C@H](CC(=O)O)NC(=O)[C@H](Cc1ccccc1)NC(=O)[C@H](C)NC(=O)[C@@H](N)Cc1ccc(O)cc1)C(=O)N[C@H](C(=O)NCC(=O)O)C(C)C
cat: F
//
compound: CC(C)[C@H](NC(=O)[C@H](CCC(N)=O)NC(=O)[C@H](Cc1ccccc1)NC(=O)[C@@H](C)NC(=O)[C@@H](N)Cc1ccc(O)cc1)C(=O)N[C@H](C(=O)NCC(=O)O)C(C)C
cat: T
//
compound: CSCC[C@H](NC(=O)[C@H](CC(C)C)NC(=O)[C@H](CC(=O)O)NC(=O)[C@H](Cc1ccccc1)NC(=O)[C@@H](CCSC)NC(=O)[C@@H](N)Cc1ccc(O)cc1)C(=O)N[C@@H](CC(=O)O)C(N)=O
cat: F
//
compound: CSCC[C@@H](NC(=O)[C@@H](N)Cc1ccc(O)cc1)C(=O)N[C@@H](Cc1ccccc1)C(=O)N[C@@H](Cc1cnc[nH]1)C(=O)N[C@@H](CC(C)C)C(=O)N[C@@H](CC(=O)O)C(=O)N[C@@H](CC(=O)O)C(=O)O
cat: F
//
compound: CCCC[C@H](NC(=O)[C@H](CC(C)C)NC(=O)[C@H](Cc1cnc[nH]1)NC(=O)[C@H](Cc1ccccc1)NC(=O)[C@@H](CCSC)NC(=O)[C@@H](N)Cc1ccc(O)cc1)C(=O)N[C@@H](CC(=O)O)C(N)=O
cat: T

----------
tgt: Delta-type opioid receptor (Rattus norvegicus, UniProt P33533)
Sequence (P33533 whole entry): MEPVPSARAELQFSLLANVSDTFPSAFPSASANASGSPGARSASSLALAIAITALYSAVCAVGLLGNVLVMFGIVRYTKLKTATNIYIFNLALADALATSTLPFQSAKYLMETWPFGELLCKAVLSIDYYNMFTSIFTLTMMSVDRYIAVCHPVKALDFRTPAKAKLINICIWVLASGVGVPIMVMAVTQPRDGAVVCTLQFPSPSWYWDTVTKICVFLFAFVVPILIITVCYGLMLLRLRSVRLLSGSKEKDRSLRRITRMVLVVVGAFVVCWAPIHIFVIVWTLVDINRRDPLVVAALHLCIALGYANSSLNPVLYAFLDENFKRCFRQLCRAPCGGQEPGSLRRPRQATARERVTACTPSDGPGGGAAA
test protocol: Binding affinity against Opioid receptor delta 1 in P2 membrane preparation of rat brain by [3H]DADLE displacement.
Type: cell membranes
pKi: −log10 of the molar value. Peptide text beside a SMILES is read from it.

compound: CSCC[C@H](NC(=O)[C@H](CC(=O)O)NC(=O)[C@H](CC(=O)O)NC(=O)[C@H](Cc1ccccc1)NC(=O)[C@@H](CCSC)NC(=O)[C@@H](N)Cc1ccc(O)cc1)C(=O)N[C@@H](Cc1c[nH]cn1)C(N)=O
pKi: 5.72
//
compound: CC(C)[C@H](NC(=O)[C@H](Cc1ccccc1)NC(=O)[C@H](C)NC(=O)[C@@H](N)Cc1ccc(O)cc1)C(=O)N[C@H](C(=O)N[C@@H](CC(=O)O)C(=O)NCC(N)=O)C(C)C (H-YAFVVDG-NH2)
pKi: 8.03
//
compound: CSCC[C@@H](NC(=O)[C@@H](N)Cc1ccc(O)cc1)C(=O)N[C@@H](Cc1ccccc1)C(=O)N[C@@H](Cc1cnc[nH]1)C(=O)N[C@@H](CC(C)C)C(=O)N[C@@H](CC(=O)O)C(=O)N[C@@H](CC(=O)O)C(N)=O
pKi: 8.51

----------
Recorded pKi values for a group of compounds are listed next.
tgt: Delta-type opioid receptor (Rattus norvegicus)
test protocol: Binding affinity against Opioid receptor delta 1 in P2 membrane preparation of rat brain by [3H]DADLE displacement.
Type: cell membranes
pKi: −log10 of the molar value.

compound string: CCCC[C@H](NC(=O)[C@H](CC(C)C)NC(=O)[C@H](Cc1cnc[nH]1)NC(=O)[C@H](Cc1ccccc1)NC(=O)[C@@H](CCSC)NC(=O)[C@@H](N)Cc1ccc(O)cc1)C(=O)N[C@@H](CC(=O)O)C(N)=O
pKi: 9.66
--
compound string: CSCC[C@H](NC(=O)[C@H](CC(C)C)NC(=O)[C@H](Cc1c[nH]cn1)NC(=O)[C@H](Cc1ccccc1)NC(=O)[C@@H](CCSC)NC(=O)[C@@H](N)Cc1ccc(O)cc1)C(=O)N[C@@H](CC(N)=O)C(N)=O
pKi: 9.66
--
compound string: CSCC[C@H](NC(=O)[C@H](CC(C)C)NC(=O)[C@H](CC(=O)O)NC(=O)[C@H](Cc1ccccc1)NC(=O)[C@@H](CCSC)NC(=O)[C@@H](N)Cc1ccc(O)cc1)C(=O)N[C@@H](CC(=O)O)C(N)=O
pKi: 8.11

----------
Recorded Ki values for a group of molecules are listed next.
tgt: Mu-type opioid receptor (Rattus norvegicus)
test protocol: Binding affinity against Opioid receptor mu 1 in P2 membrane preparation of rat brain by [3H]DAGO displacement.
Type: cell membranes
Square brackets hold non-standard residues; d marks the D form. Peptide text beside a SMILES is read from it.
property label: Ki (nM)

molecule: CSCC[C@@H](NC(=O)[C@@H](N)Cc1ccc(O)cc1)C(=O)N[C@@H](Cc1ccccc1)C(=O)N[C@@H](Cc1cnc[nH]1)C(=O)N[C@@H](CC(C)C)C(=O)N[C@@H](CC(=O)O)C(=O)N[C@@H](CC(=O)O)C(N)=O
tgt: Mu-type opioid receptor (Rattus norvegicus)
property label: Ki
unit tag: nM
reported result: 3410
--
molecule: CSCC[C@H](NC(=O)[C@H](CC(C)C)NC(=O)[C@H](Cc1cnc[nH]1)NC(=O)[C@H](Cc1ccccc1)NC(=O)[C@@H](CCSC)NC(=O)[C@@H](N)Cc1ccc(O)cc1)C(=O)N[C@@H](CC(=O)O)C(N)=O [DELTORPHIN A] (H-Y[dM]FHLMD-NH2)
tgt: Mu-type opioid receptor (Rattus norvegicus)
property label: Ki
unit tag: nM
reported result: 336
--
molecule: CSCC[C@H](NC(=O)[C@H](CC(C)C)NC(=O)[C@H](Cc1cnc[nH]1)NC(=O)[C@H](Cc1ccccc1)NC(=O)[C@@H](CCSC)NC(=O)[C@@H](N)Cc1ccc(O)cc1)C(=O)N[C@@H](CC(=O)O)C(C)=O
tgt: Mu-type opioid receptor (Rattus norvegicus)
property label: Ki
unit tag: nM
reported result: 3220
--
molecule: C[C@@H](NC(=O)[C@@H](N)Cc1ccc(O)cc1)C(=O)N[C@@H](Cc1ccccc1)C(=O)NCC(=O)N[C@@H](Cc1ccc(O)cc1)C(=O)N1CCC[C@H]1C(=O)N[C@@H](CO)C(N)=O
tgt: Mu-type opioid receptor (Rattus norvegicus)
property label: Ki
unit tag: nM
reported result: 0.7
--
molecule: CC(C)[C@H](NC(=O)[C@H](Cc1ccccc1)NC(=O)[C@H](C)NC(=O)[C@@H](N)Cc1ccc(O)cc1)C(=O)N[C@H](C(=O)N[C@@H](CC(=O)O)C(=O)NCC(N)=O)C(C)C (H-YAFVVDG-NH2)
tgt: Mu-type opioid receptor (Rattus norvegicus)
property label: Ki
unit tag: nM
reported result: 149
--
molecule: CC(C)[C@H](NC(=O)CNC(=O)[C@H](Cc1ccccc1)NC(=O)[C@H](C)NC(=O)[C@@H](N)Cc1ccc(O)cc1)C(=O)N[C@H](C(=O)N[C@@H](CC(=O)O)C(=O)O)C(C)C (H-YAFGVVD-OH)
tgt: Mu-type opioid receptor (Rattus norvegicus)
property label: Ki
unit tag: nM
reported result: 57.5

----------
Recorded pKi values for a group of compounds are listed next.
tgt: Delta-type opioid receptor (Rattus norvegicus, UniProt P33533)
test protocol: Inhibition of [3H]-DADLE binding to opioid receptor delta in P2 membrane preparation of rat brain
Format: cell membranes
pKi: −log10 of the molar value. Peptide text beside a SMILES is read from it.
property label: pKi

compound: CC(C)[C@H](NC(=O)[C@H](CC(=O)O)NC(=O)[C@H](Cc1ccccc1)NC(=O)[C@@H](C)NC(=O)[C@@H](N)Cc1ccc(O)cc1)C(=O)N[C@H](C(=O)NCC(N)=O)C(C)C [DELTORPHIN C]
tgt: Delta-type opioid receptor (Rattus norvegicus, UniProt P33533)
reported result: 9.68
--
compound: CC(C)[C@H](NC(=O)[C@H](CCC(=O)O)NC(=O)[C@H](Cc1ccccc1)NC(=O)[C@H](C)NC(=O)[C@@H](N)Cc1ccc(O)cc1)C(=O)N[C@H](C(=O)NCC(=O)O)C(C)C [DELTORPHINE II]
tgt: Delta-type opioid receptor (Rattus norvegicus, UniProt P33533)
reported result: 9.51
--
compound: CC(C)[C@H](NC(=O)[C@H](CCC(=O)O)NC(=O)[C@H](Cc1ccccc1)NC(=O)[C@@H](C)NC(=O)[C@@H](N)Cc1ccc(O)cc1)C(=O)N[C@H](C(=O)NCC(=O)O)C(C)C [DELTORPHIN]
tgt: Delta-type opioid receptor (Rattus norvegicus, UniProt P33533)
reported result: 8.10
--
compound: CC(C)[C@H](NC(=O)[C@H](CC(N)=O)NC(=O)[C@H](Cc1ccccc1)NC(=O)[C@H](C)NC(=O)[C@@H](N)Cc1ccc(O)cc1)C(=O)N[C@H](C(=O)NCC(N)=O)C(C)C (H-YAFNVVG-NH2)
tgt: Delta-type opioid receptor (Rattus norvegicus, UniProt P33533)
reported result: 9.19
